Each recorded value in this set is attributed to ChEMBL document CHEMBL6103570.

Each record here notes measured selectivity ratio.
- protocolDescription: Photo selectivity index, ratio of CC50 for darktoxicity in human MCF7 cells assessed as cell viability preincubated for 24 hrs followed by incubation under dark condition for 24 hrs by MTT assay to IC50 for phototoxicity in human MCF7 cells assessed as cell viability preincubated for 24 hrs followed by white light irradiation at 20 mW/cm2 for 10 mins and measured after 24 hrs by MTT assay
- Type: toxicity, cell-based
- measurementContext: read-out: Ratio CC50/IC50

Solved cases below.
Query: Value lookup for selectivity ratio; key = CC1=C(I)C(C)=[N+]2C1=C(c1nccc3c1[nH]c1ccccc13)c1c(C)c(I)c(C)n1[B-]2(F)F
Result: > 2430

Query: Value lookup for selectivity ratio; key = COC(=O)c1cc2c3ccccc3n(C)c2c(C2=C3C(C)=C(I)C(C)=[N+]3[B-](F)(F)n3c(C)c(I)c(C)c32)n1
Result: > 7750

More entries:
Query: Value lookup for selectivity ratio; key = C=Cc1c(C)c2cc3nc(c(CC(=O)O)c4[nH]c(cc5nc(cc1[nH]2)C(C)=C5CC)c(C)c4C(=O)O)[C@@H](CCC(=O)O)[C@@H]3C [CHLORIN E6]
Result: > 59

---

Each record here notes measured pIC50.
- protocolDescription: Phototoxicity in human Bcap37 cells assessed as cell viability preincubated for 24 hrs followed by white light irradiation at 20 mW/cm2 for 10 mins and measured after 24 hrs by MTT assay
- Assay type: functional, cell-based
- measurementContext: Bcap37, light or radiation study
Units for pIC50: none; it is -log10 of a concentration expressed in mol/L.

Solved cases below.
Query: Value lookup for pIC50; key = C=Cc1c(C)c2cc3nc(c(CC(=O)O)c4[nH]c(cc5nc(cc1[nH]2)C(C)=C5CC)c(C)c4C(=O)O)[C@@H](CCC(=O)O)[C@@H]3C
Result: 5.90

Query: Value lookup for pIC50; key = CC1=C(I)C(C)=[N+]2C1=C(c1nccc3c1[nH]c1ccccc13)c1c(C)c(I)c(C)n1[B-]2(F)F
Result: 7.59

Please turn your attention to the following entry.
Query: Value lookup for pIC50; key = COC(=O)c1cc2c3ccccc3n(C)c2c(C2=C3C(C)=C(I)C(C)=[N+]3[B-](F)(F)n3c(C)c(I)c(C)c32)n1
Result: 7.96
